All figures here come from paper PMC11357446.

Molecular target: HDAC6 recombinant enzyme (Homo sapiens)
Sequence (Q9UBN7 whole entry): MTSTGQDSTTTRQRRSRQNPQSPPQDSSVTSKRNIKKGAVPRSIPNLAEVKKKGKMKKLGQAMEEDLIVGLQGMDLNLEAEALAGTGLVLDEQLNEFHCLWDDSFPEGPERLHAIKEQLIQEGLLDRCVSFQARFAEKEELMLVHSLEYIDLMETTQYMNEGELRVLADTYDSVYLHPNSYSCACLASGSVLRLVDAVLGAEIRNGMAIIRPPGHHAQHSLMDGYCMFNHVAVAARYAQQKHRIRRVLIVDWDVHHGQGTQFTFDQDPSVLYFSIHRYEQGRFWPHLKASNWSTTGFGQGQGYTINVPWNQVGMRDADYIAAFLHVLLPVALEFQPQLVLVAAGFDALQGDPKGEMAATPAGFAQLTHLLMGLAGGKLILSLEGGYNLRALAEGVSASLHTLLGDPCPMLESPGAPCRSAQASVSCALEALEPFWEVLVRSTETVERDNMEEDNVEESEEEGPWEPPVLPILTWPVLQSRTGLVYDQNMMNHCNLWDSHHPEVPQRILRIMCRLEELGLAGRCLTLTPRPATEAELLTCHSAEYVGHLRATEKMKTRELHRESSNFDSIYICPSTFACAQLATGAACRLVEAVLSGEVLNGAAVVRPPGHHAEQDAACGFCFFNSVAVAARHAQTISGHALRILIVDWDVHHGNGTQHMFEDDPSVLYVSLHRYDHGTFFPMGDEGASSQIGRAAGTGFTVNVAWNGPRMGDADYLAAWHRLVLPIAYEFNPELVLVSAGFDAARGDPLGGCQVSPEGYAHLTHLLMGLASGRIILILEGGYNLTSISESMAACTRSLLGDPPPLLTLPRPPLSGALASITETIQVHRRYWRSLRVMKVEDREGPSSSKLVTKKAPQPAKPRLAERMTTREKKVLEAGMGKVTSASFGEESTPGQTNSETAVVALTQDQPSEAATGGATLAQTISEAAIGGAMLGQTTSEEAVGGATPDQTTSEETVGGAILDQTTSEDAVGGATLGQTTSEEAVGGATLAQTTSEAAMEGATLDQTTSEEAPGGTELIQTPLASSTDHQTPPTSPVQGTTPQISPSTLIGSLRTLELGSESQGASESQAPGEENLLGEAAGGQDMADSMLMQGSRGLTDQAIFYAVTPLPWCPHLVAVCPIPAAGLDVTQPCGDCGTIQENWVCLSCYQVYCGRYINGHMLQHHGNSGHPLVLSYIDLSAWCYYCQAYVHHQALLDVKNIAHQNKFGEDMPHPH
Assay: Fluorimetric HDAC6 assay
Details: singlicate
Procedure: In vitro assessments of compounds on the HDAC6 enzyme were performed, as described in our previous works. […] The blank employed for curve fitting was evaluated on a solution of the buffer containing a concentration of […] of DMSO. IC50 values were calculated by using the GraphPad Prism 4 program based on a sigmoidal dose–response equation.
pIC50: −log10 of the molar value.
measured.endpoint: pIC50

A. O=C(c1cc(OCc2ccccc2)ccc1O)N1CCC(c2noc(C(F)(F)F)n2)CC1
B. N#Cc1ccc(NC(=O)c2cccc(-c3noc(C(F)(F)F)n3)c2)c(O)c1
C. O=C(Nc1ncccc1O)c1ccc(-c2noc(C(F)(F)F)n2)cc1
D. CC(C)[C@H](C(=O)NCc1ccc(C(=O)NO)cc1)N1Cc2ccccc2C1=O
*Q* Please list these in order of increasing pIC50. Thank you! Your answer should be the labels, listed in the requested order.
*A* B, A, C, D
(B: 4.77, A: 5.19, C: 5.57, D: 8.30)
